Data origin, for the record: PubChem BioAssay (EPA / NIEHS)

# Read-out: Cytochrome P450 7A1 (Homo sapiens) (UniProt P22680)
# experimental_protocol: LTEA_HepaRG_CYP7A1: Life Technologies and Expression Analysis (LTEA) Assay for Cytochrome P450 7A1 (CYP7A1) using HepaRG (AID 2283496)
# condition_label: mRNA level, 48 h; actives raise or lower the signal
The source made the active and inactive calls. Rule for the calls: active = hit-call score of the fitted dose curve at least 0.9, where 1 is the maximum; inactive = score below 0.9.
Outcome codes: active, inactive

> print(dat)
                                   compound  class.label
1  CN(Cc1cnc2nc(N)nc(N)c2n1)c1ccc(C(=O)N[C@@H](CCC(=O)O)C(=O)O)cc1       active
2  O=C(CCCN1CCC(O)(c2ccc(Cl)cc2)CC1)c1ccc(F)cc1       active
3                   O=C1NS(=O)(=O)c2ccccc21     inactive
4      CCC(C)c1ccccc1O (stereo unspecified)     inactive
5                        CC(=O)Nc1ccc(O)cc1     inactive
6  Cc1[nH]nc2c1N=C(c1ccccc1Cl)c1cc([N+](=O)[O-])ccc1N2       active
